Target: Leukotriene A-4 hydrolase (Homo sapiens, UniProt P09960)
Sequence (P09960 whole entry): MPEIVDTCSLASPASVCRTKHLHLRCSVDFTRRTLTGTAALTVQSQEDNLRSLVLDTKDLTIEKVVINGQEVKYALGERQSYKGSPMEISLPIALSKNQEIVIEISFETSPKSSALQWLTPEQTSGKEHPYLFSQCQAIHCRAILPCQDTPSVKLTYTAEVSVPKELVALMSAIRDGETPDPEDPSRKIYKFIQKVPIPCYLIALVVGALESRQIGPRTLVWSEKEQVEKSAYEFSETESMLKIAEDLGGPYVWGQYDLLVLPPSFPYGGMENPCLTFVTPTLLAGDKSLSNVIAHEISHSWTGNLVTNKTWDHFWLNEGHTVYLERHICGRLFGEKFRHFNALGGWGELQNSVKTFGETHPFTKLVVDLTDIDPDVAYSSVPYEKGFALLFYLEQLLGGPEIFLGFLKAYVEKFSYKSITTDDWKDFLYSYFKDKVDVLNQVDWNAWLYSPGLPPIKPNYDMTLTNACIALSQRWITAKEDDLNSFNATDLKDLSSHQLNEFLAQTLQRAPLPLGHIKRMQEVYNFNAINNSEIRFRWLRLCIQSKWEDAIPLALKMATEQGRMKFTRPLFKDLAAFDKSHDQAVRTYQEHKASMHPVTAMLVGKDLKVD
Assay: Inhibition of recombinant human LTA4H Epoxide Hydrolase expressed in Escherichia coli BL21 (DE3) pLysS preincubated for 10 mins followed by addition of LTA4 as substrate measured after 15 mins by reverse-phase HPLC analysis
pIC50: −log10 of the molar value.
REPORTED PROPERTY: pIC50

CN(C)Cc1cccc(S(=O)(=O)n2ccc(/C=C/C(=O)NO)c2)c1    < 5.00
